test system: barnyardgrass (Echinochloa crus-galli); test: Test C greenhouse herbicide test, pre- and postemergence; assay type: in vivo; conditions: Postemergence, 125 g ai/ha; scale 0 to 100, 0 is no effect, 100 is complete control
Kindly state Plant response rating, Barnyardgrass for each of the entries shown.
Just the number, please.

Query string: For the compound shown here, `COC(=O)Oc1c(C)nn(C)c(=O)c1-c1ccc(F)c2ccccc12` , give the reported Plant response rating, Barnyardgrass.
Result string: 35

Query string: Tell me the measured Plant response rating, Barnyardgrass of `CCc1sc2ccc(C)cc2c1-c1c(O)c(C)nn(C)c1=O` , please.
Result string: 85

Query string: # lookup: Plant response rating, Barnyardgrass of `Cc1nn(C)c(=O)c(-c2c(C)sc3ccc(Br)cc23)c1O`
Result string: 10

Query string: // Plant response rating, Barnyardgrass lookup, key: `Cc1ccc2ccccc2c1-c1c(OC(=O)OC(C)C)c(C)nn(C)c1=O`
Result string: 50

Query string: Any idea what its Plant response rating, Barnyardgrass is? The compound is `CCc1oc2ccc(C)cc2c1-c1c(O)c(C)nn(C)c1=O`
Result string: 90

Query string: Entry under review: `Cc1nn(C)c(=O)c(-c2cccc3ccccc23)c1O` . Reported Plant response rating, Barnyardgrass?
Result string: 5

Query string: Plant response rating, Barnyardgrass lookup needed for `Cc1sc2ccccc2c1-c1c(O)c(Cl)nn(C)c1=O` , thanks.
Result string: 20

Query string: Report Plant response rating, Barnyardgrass for `Cc1nn(C)c(=O)c(-c2ccc(Cl)c3ccccc23)c1O` please.
Result string: 40

Query string: Fill in: Plant response rating, Barnyardgrass of `CCc1ccc2ccccc2c1-c1c(O)c(C)nn(C)c1=O` is ___
Result string: 65

Query string: Find the recorded Plant response rating, Barnyardgrass belonging to `CCC(=O)Oc1c(C)nn(C)c(=O)c1-c1c(C)ccc2ccccc12` and report it.
Result string: 30

====

test system: soybean (Glycine max); experiment: Test C greenhouse herbicide test, pre- and postemergence; assay type: in vivo; conditions: Preemergence, 125 g ai/ha; scale 0 to 100, 0 is no effect, 100 is complete control
measuredMetric: Plant response rating, Soybean
No unit in the answer, please; the number alone is enough.

Query string: So what Plant response rating, Soybean did `CCCC(=O)Oc1c(C)nn(C)c(=O)c1-c1c(CC)sc2ccc(C)cc12` get with soybean (Glycine max)?
Result string: 0

Query string: // fetch soybean (Glycine max) Plant response rating, Soybean for `CCc1ccc2ccccc2c1-c1c(O)c(C)nn(C)c1=O`
Result string: 40

Query string: # query: Plant response rating, Soybean | item `Cc1nn(C)c(=O)c(-c2c(C)sc3ccc(Br)cc23)c1O` | system: soybean (Glycine max)
Result string: 0

Query string: # query: Plant response rating, Soybean | item `CC(=O)Oc1c(C)nn(C)c(=O)c1-c1c(C)sc2ccc(C(F)(F)F)cc12` | system: soybean (Glycine max)
Result string: 0

Query string: Tell me reported Plant response rating, Soybean for `COC(=O)Oc1c(OC)nn(C)c(=O)c1-c1c(C)ccc2ccccc12` , tested with soybean (Glycine max).
Result string: 10

Query string: Form field - read-out: Plant response rating, Soybean; system: soybean (Glycine max); submitted item: `CC(=O)Oc1c(Cl)nn(C)c(=O)c1-c1c(C)sc2ccc(C(F)(F)F)cc12`
Result string: 5

Query string: Short answer please: Plant response rating, Soybean, soybean (Glycine max), entry `Cc1nn(C)c(=O)c(-c2ccc(Cl)c3ccccc23)c1O`
Result string: 60

Query string: API: value(readout= Plant response rating, Soybean, system= soybean (Glycine max), query= `CCc1sc2c(C)cc(C)cc2c1-c1c(O)c(C)nn(C)c1=O` )
Result string: 0

Query string: Lab note: need Plant response rating, Soybean with soybean (Glycine max) for entry `CCCC(=O)Oc1c(C)nn(C)c(=O)c1-c1c(C)sc2ccc(C)cc12` , please look it up.
Result string: 0

Query string: Record lookup: for soybean (Glycine max), what Plant response rating, Soybean belongs to `CC(=O)Oc1c(C)nn(C)c(=O)c1-c1c(C)cc(C)c2ccccc12` ?
Result string: 5

Query string: Which Plant response rating, Soybean is reported with soybean (Glycine max) for this entry: `COC(=O)Oc1c(C)nn(C)c(=O)c1-c1c(C)sc2ccc(C)cc12` ?
Result string: 0
